- System: NCI-H522
- protocol-summary: NCI tumour cell line growth inhibition, 48 h
Calls of active or inactive are those of the source. No stated cut-off is given here; in the data, active = GI50 up to about 1.1 µM and inactive = higher.
measured-attribute: GI50

# count of solved cases: 3
compound	GI50
COc1cc(C)cc(C(=O)OCc2ccccc2)c1C1=C(Cl)C(=O)C(Cl)=CC1=O	2.05 µM (inactive)
N#C/C(=C/c1ccc[nH]1)P(=O)(O)O	> 100 µM (inactive)
O=C(O)COc1ccc(C(=O)/C(SS/C(C(=O)c2ccc(OCC(=O)O)c(Cl)c2Cl)=C2\C=C(c3ccc(Br)cc3)SS2)=C2/C=C(c3ccc(Br)cc3)SS2)c(Cl)c1Cl	0.798 µM (active)

Now consider a different compound.
// GI50 lookup, key: CSC1=Nc2ccccc2-c2nc3ccccc3cc2C1
69.2 µM (inactive)

* * *

- Test system: SR
- protocol-summary: NCI tumour cell line growth inhibition, 48 h
Active and inactive are the calls of the source. Rule as the data show it: active = GI50 up to about 1.1 µM and inactive = higher.
Lab note: assign the record to one of 1 for active, 0 for inactive

Some solved entries appear below for comparison.
molecule	class-label
C/C(=N\NC(=O)c1ccncc1)c1ccccc1Cl	0
COc1cc([N+](=O)[O-])ccc1NC1=CC(=O)CCC1	0
O=C1CCC(NC(=O)c2ccccc2)C(=O)N1 (configuration not stated)	0
NC(=O)c1ccc(N)nc1 [6-AMINONICOTINAMIDE]	0

Lab note: next molecule to report on.
# fetch the recorded call for CCOC(=O)C1=NNC(C(=O)c2ccccc2)C1c1ccccc1 (configuration not stated) here
0

* * *

- Tested on: LOX IMVI
- protocol-summary: NCI tumour cell line growth inhibition, 48 h
Active and inactive are the calls of the source. No stated cut-off is given here; in the data, active = GI50 up to about 1.1 µM and inactive = higher.
Lab note: assign the record to one of active, inactive

Some solved entries appear below for comparison.
molecule	system	class-label
C=C1C(=O)O[C@@H]2/C=C(/C)[C@@H](OC(C)=O)C[C@@H](O)/C(C)=C\[C@@H](OC(=O)[C@]3(C)O[C@@H]3C)[C@@H]12	LOX IMVI	inactive
CCOC(=O)C(C(=O)OCC)P(=S)(S)c1ccccc1 (stereo not given)	LOX IMVI	inactive
COc1cc2c(c(OC)c1)[C@H](C)N(Cc1ccccc1)C(C)C2 (stereo not given in full)	LOX IMVI	inactive
C=CCOc1ccc(C(=N/NC(=O)c2ccccc2)/N=N/c2ccc(C)cc2)cc1OC	LOX IMVI	inactive

# fetch the recorded call for COC(=O)C(=O)C(C(=O)C(=O)Nc1cccc(OC)c1)c1nc2ccc(Cl)cc2nc1O (stereo not given) here
inactive

# fetch the recorded call for Cc1cc(NN)nc2[nH]nc(N)c12 here
inactive

# fetch the recorded call for CCC1=C(CC)C1(C#N)[N+](=O)[O-] here
inactive

# fetch the recorded call for COc1ccc(-c2oc3cc(OC(C)=O)cc(OC(C)=O)c3c(=O)c2OC)cc1 here
inactive

# fetch the recorded call for C[C@@H]1C2=CC[C@@]3(C)C(CCC3[C@H](C)[C@H]3C[C@@]4(C)O[C@@](c5cccnc5)(O3)OC4(C)C)[C@@H]2C2OC2[C@@]12CCC(=O)O2 (stereo not given in full) here
inactive

* * *

- Tested on: HOP-92
- protocol-summary: NCI tumour cell line growth inhibition, 48 h
Activity calls are given as the source filed them. No stated cut-off is given here; in the data, active = GI50 up to about 1.1 µM and inactive = higher.
measured-attribute: GI50

# count of solved cases: 8
compound	data-value
CCc1cccc(C)c1NC(=O)CC1C(=O)Nc2ccccc2S1(=O)=O (centres undefined)	12 µM (inactive)
CCOP(C)(=O)/C(Cc1ccc(OC)c(OC)c1)=N\O (centres undefined)	> 100 µM (inactive)
NC(=O)c1ccc(N)nc1 [6-AMINONICOTINAMIDE]	213 µM (inactive)
COc1cc(/C=C2/C(=O)N(C(=O)c3ccc(Cl)cc3)N=C2C)cc(OC)c1OC	> 100 µM (inactive)
O=C(O)COc1ccc(C(=O)/C(SS/C(C(=O)c2ccc(OCC(=O)O)c(Cl)c2Cl)=C2\C=C(c3ccccc3Cl)SS2)=C2/C=C(c3ccccc3Cl)SS2)c(Cl)c1Cl	7.89 µM (inactive)
CC(=O)CC(=O)NC=O	> 100 µM (inactive)
C#CCOC(=O)C(N)CS (centres undefined)	> 100 µM (inactive)
C[C@]12CC[C@@H]3c4ccc(OCC(=O)O)cc4CC[C@H]3[C@@H]1CCC2=O	> 100 µM (inactive)

Now consider a different compound.
// GI50 lookup, key: CC(C)c1ccc(Cc2ccc(C(C)C)c(NC(=O)C(=O)Cc3cnc4ccccc4n3)c2C(C)C)c(C(C)C)c1NC(=O)C(=O)Cc1cnc2ccccc2n1
12.4 µM (inactive)
